Measured values drawn from ChEMBL document CHEMBL1151744 for this set.

tested.system: Fatty-acid amide hydrolase 1 (Rattus norvegicus) (UniProt P97612)
Sequence (P97612 whole entry): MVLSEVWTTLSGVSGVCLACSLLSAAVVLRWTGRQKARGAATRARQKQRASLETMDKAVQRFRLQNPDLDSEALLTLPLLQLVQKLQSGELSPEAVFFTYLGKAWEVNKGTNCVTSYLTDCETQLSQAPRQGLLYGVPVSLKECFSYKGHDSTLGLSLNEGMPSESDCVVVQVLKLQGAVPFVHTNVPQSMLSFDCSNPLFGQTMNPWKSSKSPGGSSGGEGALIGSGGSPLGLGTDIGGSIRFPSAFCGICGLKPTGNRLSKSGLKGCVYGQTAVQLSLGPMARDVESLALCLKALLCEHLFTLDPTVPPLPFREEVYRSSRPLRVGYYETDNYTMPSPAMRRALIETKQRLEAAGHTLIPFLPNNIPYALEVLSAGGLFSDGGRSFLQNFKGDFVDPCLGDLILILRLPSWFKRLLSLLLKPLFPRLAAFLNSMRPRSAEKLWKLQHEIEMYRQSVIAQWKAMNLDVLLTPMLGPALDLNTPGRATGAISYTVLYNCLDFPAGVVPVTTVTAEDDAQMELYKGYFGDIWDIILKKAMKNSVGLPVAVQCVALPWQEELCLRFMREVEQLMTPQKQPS
assay.text: Inhibition of FAAH in rat brain membrane assessed as [14C]anandamide hydrolysis at 10 uM by scintillation counting
Assay type: cell membranes
experimental.readout: inhibition (%)
Numbers only, in %.

Quick request: inhibition for each listed item, please.
1. CCCCC/C=C\C/C=C\C/C=C\C/C=C\CCCC(=O)Nc1ccc2[nH]ncc2c1
2. CCCCC/C=C\C/C=C\C/C=C\C/C=C\CCCC(=O)Nc1ccc(O)c(OC)c1

Ans:
1: 1; 2: 23

Quick request: inhibition for each listed item, please.
1. CCCCC/C=C\C/C=C\C/C=C\C/C=C\CCCC(=O)NCc1ccc(O)cc1
2. CCCCC/C=C\C/C=C\C/C=C\C/C=C\CCCC(=O)Nc1ccc(O)cc1

Ans:
1: 56; 2: 15
